system: NIH3T3; assay: qHTS assay to identify novel small-molecules to repurpose for Merkel cell carcinoma treatment (AID 1296009); settings: MCC and control cell lines, CellTiter-Glo viability, 72 h; at 44.8 µM (top of the series) unless noted; further: nearly all actives have a fitted effect of over 60% in size
Results filed as inconclusive are left out. Active and inactive are the calls of the source. The call rests on the fitted dose curve; in most records, active means well fitted inhibition curve with a large enough effect; inconclusive means small, poorly fitted or top-dose-only effect; inactive means flat fitted curve, though single readings scatter.
outcome-measure: outcome

[
  {
    "compound": "C[C@H]1[C@H](C)CC[C@]2(C(=O)O)CC[C@]3(C)C(=CCC4[C@@]5(C)C[C@@H](O)[C@H](O)C(C)(C)C5CC[C@]43C)[C@H]12 (some centres undefined)",
    "measured-value": "inactive [at 17.4 µM]"
  },
  {
    "compound": "O=C(O)CCc1ccc(NCc2cccc3c2CCCN3CCOc2ccccc2)cc1F",
    "measured-value": "inactive"
  },
  {
    "compound": "C/C=C1\\[C@H](O[C@@H]2O[C@H](CO)[C@@H](O)[C@H](O)[C@H]2O)OC=C(C(=O)O)[C@H]1CC(=O)OCCc1ccc(O)cc1",
    "measured-value": "inactive [at 17.4 µM]"
  },
  {
    "compound": "CC(=O)/C=C/C1(O)C(C)(C)CC(O)CC1(C)O (centres undefined)",
    "measured-value": "inactive"
  }
]

Which outcome is listed for CC(C/C=C/C(C)(C)O)C1CCC(C)(O)C(O)C1 (centres undefined) ?
inactive

Which outcome is listed for COc1cc(/C=C/C(=O)OCC2OC(OC3(CO)OC(CO)C(O)C3O)C(O)C(O)C2O)ccc1O (centres undefined) ?
inactive [at 17.4 µM]
